Where a SMILES comes first, the peptide text is derived from it. Bridges are numbered along the chain shown (N, C = ends). [ ]: non-standard residue; d: D form. The star is where a group is joined. Ileψ(thiazoline)Cys = CC[C@H](C)[C@H](N)C1=N[C@H](C(=O)*)CS1; dOrn = NCCC[C@@H](N)C(=O)O
Hepatotoxicity: recorded HepSE_liver function tests abnormal for assorted compounds

compound: CC(C)[N+](C)(CCOC(=O)C1c2ccccc2Oc2ccccc21)C(C)C
HepSE_liver function tests abnormal: 0

compound: CC1(C)O[C@@H]2C[C@H]3[C@@H]4C[C@H](F)C5=CC(=O)C=C[C@]5(C)[C@H]4[C@@H](O)C[C@]3(C)[C@]2(C(=O)CO)O1 [FLUNISOLIDE]
HepSE_liver function tests abnormal: 0

compound: COc1cc2ncnc(Nc3ccc(F)c(Cl)c3)c2cc1OCCCN1CCOCC1
HepSE_liver function tests abnormal: 0

compound: CCCC1O[C@@H]2C[C@H]3[C@@H]4CCC5=CC(=O)C=C[C@]5(C)[C@H]4[C@@H](O)C[C@]3(C)[C@]2(C(=O)CO)O1 (stereo partly specified) [BUDESONIDE]
HepSE_liver function tests abnormal: 0

compound: CC[C@H](C)[C@H](N)C1=N[C@H](C(=O)N[C@@H](CC(C)C)C(=O)N[C@H](CCC(=O)O)C(=O)N[C@H](C(=O)N[C@H]2CCCCNC(=O)[C@H](CC(N)=O)NC(=O)[C@@H](CC(=O)O)NC(=O)[C@H](Cc3cnc[nH]3)NC(=O)[C@@H](Cc3ccccc3)NC(=O)[C@H]([C@@H](C)CC)NC(=O)[C@@H](CCCN)NC2=O)[C@@H](C)CC)CS1 [BACITRACIN] ({Ileψ(thiazoline)Cys}-L[dE]IK[dOrn]I[dF]H[dD]N; lactam 4-C)
HepSE_liver function tests abnormal: 0

compound: CN(C)CCc1c[nH]c2ccc(C[C@H]3COC(=O)N3)cc12
HepSE_liver function tests abnormal: 0

* * *

- Tested on: Hepatotoxicity

molecule: NS(=O)(=O)c1cc2c(cc1C(F)(F)F)NC(Cc1ccccc1)NS2(=O)=O (centres undefined) [BENDROFLUMETHIAZIDE]
system-name: Hepatotoxicity
HepSE_cirrhosis: 0
--
molecule: COc1ccc(CCN(C)CCCC(C#N)(c2ccc(OC)c(OC)c2)C(C)C)cc1OC (centres undefined)
system-name: Hepatotoxicity
HepSE_cirrhosis: 0
--
molecule: C[C@@H]1C[C@H]2[C@@H]3C[C@H](F)C4=CC(=O)C=C[C@]4(C)[C@@]3(F)[C@@H](O)C[C@]2(C)[C@@]1(O)C(=O)CO [FLUMETHASONE]
system-name: Hepatotoxicity
HepSE_cirrhosis: 0
--
molecule: CN(C)S(=O)(=O)c1ccc2c(c1)N(CCCN1CCC(CCO)CC1)c1ccccc1S2 [PIPOTIAZINE]
system-name: Hepatotoxicity
HepSE_cirrhosis: 0

* * *

Hepatotoxicity: recorded HepSE_hepatitis for assorted compounds
result-type: HepSE_hepatitis

compound: OCCN1C[C@H](O)[C@@H](O)[C@H](O)[C@H]1CO [MIGLITOL]
result-type: HepSE_hepatitis
readout-number: 0
--
compound: CCOC(=O)Nc1ccc2c(c1)N(C(=O)CCN1CCOCC1)c1ccccc1S2 [MORICIZINE]
result-type: HepSE_hepatitis
readout-number: 1
--
compound: CNCC[C@@H](Oc1ccccc1C)c1ccccc1 [ATOMOXETINE]
result-type: HepSE_hepatitis
readout-number: 0
--
compound: CC(=O)N1CCN(c2ccc(OCC3COC(Cn4ccnc4)(c4ccc(Cl)cc4Cl)O3)cc2)CC1 (stereo not drawn) [KETOCONAZOLE]
result-type: HepSE_hepatitis
readout-number: 0
--
compound: O=c1[nH]c2ccccc2n1C1CCN(CCCC(c2ccc(F)cc2)c2ccc(F)cc2)CC1 [PIMOZIDE]
result-type: HepSE_hepatitis
readout-number: 0
--
compound: CC(=O)NCCCS(=O)(=O)O [ACAMPROSATE]
result-type: HepSE_hepatitis
readout-number: 1
--
compound: O=C1Nc2ccc(Cl)cc2[C@@](C#CC2CC2)(C(F)(F)F)O1 [EFAVIRENZ]
result-type: HepSE_hepatitis
readout-number: 1
--
compound: C[C@]12C=CC(=O)C=C1CC[C@H]1[C@@H]3C[C@@H](O)[C@](O)(C(=O)CO)[C@@]3(C)C[C@H](O)[C@@]12F [TRIAMCINOLONE]
result-type: HepSE_hepatitis
readout-number: 0
--
compound: O=C(CCCCC(=O)Nc1c(I)cc(I)c(C(=O)O)c1I)Nc1c(I)cc(I)c(C(=O)O)c1I [IODIPAMIDE]
result-type: HepSE_hepatitis
readout-number: 0
--
compound: Cc1ccsc1C(=CCCN1CCC[C@@H](C(=O)O)C1)c1sccc1C [TIAGABINE]
result-type: HepSE_hepatitis
readout-number: 0
--
compound: C[C@](N)(Cc1ccc(O)c(O)c1)C(=O)O [METHYLDOPA]
result-type: HepSE_hepatitis
readout-number: 1
--
compound: OC(c1cc(C(F)(F)F)nc2c(C(F)(F)F)cccc12)C1CCCCN1 (stereo not drawn) [MEFLOQUINE]
result-type: HepSE_hepatitis
readout-number: 0
--
compound: COC(=O)[C@@H]1CC2=CC(=O)CC[C@]2(C)[C@@]23O[C@@H]2C[C@@]2(C)[C@@H](CC[C@@]24CCC(=O)O4)[C@H]13 [EPLERENONE]
result-type: HepSE_hepatitis
readout-number: 0
--
compound: CC[C@@H]1C(=O)OC[C@@H]1Cc1cncn1C [PILOCARPINE]
result-type: HepSE_hepatitis
readout-number: 1
--
compound: C[C@@H](O)[C@H]1C(=O)N2C(C(=O)O)=C(S[C@@H]3CN[C@H](C(=O)Nc4cccc(C(=O)O)c4)C3)[C@H](C)[C@H]12
result-type: HepSE_hepatitis
readout-number: 0
--
compound: CCN1CCN(C(=O)N[C@@H](C(=O)N[C@@H]2C(=O)N3[C@@H]2SC(C)(C)[C@@H]3C(=O)O)c2ccccc2)C(=O)C1=O [PIPERACILLIN]
result-type: HepSE_hepatitis
readout-number: 1
--
compound: CCCCC1=NC2(CCCC2)C(=O)N1Cc1ccc(-c2ccccc2-c2nnn[nH]2)cc1 [IRBESARTAN]
result-type: HepSE_hepatitis
readout-number: 1
--
compound: O=C(NCC(O)CO)c1c(I)c(C(=O)NCC(O)CO)c(I)c(N(CCO)C(=O)CO)c1I (stereo not drawn) [IOVERSOL]
result-type: HepSE_hepatitis
readout-number: 0
--
compound: O=C(NCC1CCCCN1)c1cc(OCC(F)(F)F)ccc1OCC(F)(F)F (stereo not drawn) [FLECAINIDE]
result-type: HepSE_hepatitis
readout-number: 0
--
compound: COCCCC/C(=N\OCCN)c1ccc(C(F)(F)F)cc1 [FLUVOXAMINE]
result-type: HepSE_hepatitis
readout-number: 1
--
compound: COc1nc(N)nc2c1ncn2[C@@H]1O[C@H](CO)[C@@H](O)[C@@H]1O [NELARABINE]
result-type: HepSE_hepatitis
readout-number: 0
--
compound: CCS(=O)(=O)CCn1c([N+](=O)[O-])cnc1C [TINIDAZOLE]
result-type: HepSE_hepatitis
readout-number: 0
--
compound: CC[C@@H]1/C=C(\C)C[C@H](C)C[C@H](OC)[C@H]2O[C@@](O)(C(=O)C(=O)N3CCCC[C@H]3C(=O)O[C@H](/C(C)=C/[C@@H]3CC[C@H](Cl)[C@H](OC)C3)[C@H](C)[C@@H](O)CC1=O)[C@H](C)C[C@@H]2OC [PIMECROLIMUS]
result-type: HepSE_hepatitis
readout-number: 0
--
compound: CCc1nc(N)nc(N)c1-c1ccc(Cl)cc1 [PYRIMETHAMINE]
result-type: HepSE_hepatitis
readout-number: 0
--
compound: C[N+]1(C)[C@@H]2C[C@@H](OC(=O)C(O)(c3cccs3)c3cccs3)C[C@H]1[C@@H]1O[C@@H]12 [TIOTROPIUM]
result-type: HepSE_hepatitis
readout-number: 0
--
compound: O=C(O)CCNC(=O)c1ccc(/N=N/c2ccc(O)c(C(=O)O)c2)cc1 [BALSALAZIDE]
result-type: HepSE_hepatitis
readout-number: 0
--
compound: CO[C@H]1/C=C/O[C@@]2(C)Oc3c(C)c(O)c4c(O)c(c5c(nc6cc(C)ccn65)c4c3C2=O)NC(=O)/C(C)=C\C=C\[C@H](C)[C@H](O)[C@@H](C)[C@@H](O)[C@@H](C)[C@H](OC(C)=O)[C@@H]1C [RIFAXIMIN]
result-type: HepSE_hepatitis
readout-number: 0
--
compound: Clc1ccc(C(Cn2ccnc2)OCc2csc3c(Cl)cccc23)c(Cl)c1 (stereo not drawn) [SERTACONAZOLE]
result-type: HepSE_hepatitis
readout-number: 0
--
compound: CN(CCOc1ccc(NS(C)(=O)=O)cc1)CCc1ccc(NS(C)(=O)=O)cc1 [DOFETILIDE]
result-type: HepSE_hepatitis
readout-number: 0
--
compound: CSc1ccc2c(c1)N(CCC1CCCCN1C)c1ccccc1S2 (stereo not drawn) [THIORIDAZINE]
result-type: HepSE_hepatitis
readout-number: 0
--
compound: COc1cc(NS(C)(=O)=O)ccc1Nc1c2ccccc2nc2ccccc12 [AMSACRINE]
result-type: HepSE_hepatitis
readout-number: 1
--
compound: Cc1ccc(C)c(OCCCC(C)(C)C(=O)O)c1 [GEMFIBROZIL]
result-type: HepSE_hepatitis
readout-number: 0
--
compound: CNS(=O)(=O)CCc1ccc2[nH]cc(C3CCN(C)CC3)c2c1
result-type: HepSE_hepatitis
readout-number: 0
